Data origin, for the record: a melting point compilation (Tetko et al.)

# maps each entry to its melting point

Before answering, review these 5 worked examples.
compound=COc1ccc(-c2ccncc2C=O)cc1 val="82 to 84 °C"
compound=O=C1COc2ccc(C(F)(F)F)cc2N1 val="165 to 167 °C"
compound="Cc1csc(NC(=O)CSCC(N)C(=O)O)n1 (centres undefined)" val="169 to 171 °C"
compound=O=C1CC(=Cc2ccc(F)cc2)C(=O)N1 val="209 to 211 °C"
compound=NCc1cc(C(N)=O)no1 val="149 to 151 °C"

Cn1c(=O)[nH]c2cnccc21 yielded melting point of 266 to 268 °C

OCc1ccc(Br)cc1Cl yielded melting point of 70 to 72 °C

Nc1c(-c2cccs2)nc2ccccn12 yielded melting point of 188 to 190 °C

NCCC(=O)N1CCN(c2ccccn2)CC1 yielded melting point of 76 to 78 °C

NCc1noc(-c2ccsc2)n1 yielded melting point of 127 to 129 °C
